EC50 overview
- Experimental target: human muscarinic M4 receptor (Homo sapiens)
- Construct: expressed in transfected cells
- Sequence (P08173 whole entry): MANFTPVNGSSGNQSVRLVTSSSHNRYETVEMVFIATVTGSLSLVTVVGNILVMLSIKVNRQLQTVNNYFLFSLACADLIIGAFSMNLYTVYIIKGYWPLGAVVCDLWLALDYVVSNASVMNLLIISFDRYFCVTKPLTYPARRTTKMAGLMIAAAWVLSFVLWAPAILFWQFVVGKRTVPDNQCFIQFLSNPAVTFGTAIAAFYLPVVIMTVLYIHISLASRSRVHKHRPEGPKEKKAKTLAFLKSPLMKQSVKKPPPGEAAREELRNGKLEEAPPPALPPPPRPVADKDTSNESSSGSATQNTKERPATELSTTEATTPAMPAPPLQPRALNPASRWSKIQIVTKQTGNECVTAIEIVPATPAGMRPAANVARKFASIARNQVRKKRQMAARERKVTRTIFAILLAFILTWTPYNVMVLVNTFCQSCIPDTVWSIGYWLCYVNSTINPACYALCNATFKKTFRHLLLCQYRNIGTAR
- Test description: Alphascreen Surefire phospho-ERK1/2 functional assay, M4
- Assay type: cell-based
- Details: CHO cells stably expressing human M4; phospho-ERK1/2; * = variable results; read-out: pEC50 M4 (converted)

Solved cases (3 shown):
Molecule: CCOC(=O)N1CCC2(CC(N3CCC(N4C(=O)OC[C@H]4C(C)C)CC3)C2)C1 (single isomer, unassigned) [2-120 Isomer 2]
EC50: 316 nM
--
Molecule: CCOC(=O)N1CCC2(CC(N3CCC(c4nc(Cl)c(Cl)[nH]4)CC3)C2)C1 (single isomer, unassigned) [1-5 Isomer 2]
EC50: 20 nM
--
Molecule: CCOC(=O)N1CCC2(CC(N3CCC([C@@H]4CCCN4C(=O)N4Cc5cccnc5C4)CC3)C2)C1 (single isomer, unassigned) [2-133 Isomer 2]
EC50: 0.631 nM

In the following, a different molecule is considered.
Name the recorded EC50 for CCOC(=O)N1CCC2(CC(N3CCC(N4CCC(F)(F)C4)CC3)C2)C1 (single isomer, unassigned) [2-100 Isomer 2] .
200 nM
